Where do these numbers come from? They come from patent US8552208B2.

Kindly state MIC for each of the entries shown.
- System: Mycobacterium tuberculosis H37 Rv
- protocol-text: Antibacterial activity assay (MIC, broth dilution)
- Assay type: cell-based
- run-conditions: H37RV, 168 h; Mycobacterium tuberculosis H37 Rv; […]; read-out: MIC, TB
Answers are plain numbers, in µg/mL.

{"columns": ["molecule", "target-or-system", "MIC [µg/mL]"],
 "data": [
  ["CCCCCCCCCCN1C(=O)C(C#N)=C(O)[C@@H]1CC(C)C [Compound 12b]", "Mycobacterium tuberculosis H37 Rv", 3.12]
]}

// below: MIC requested for another molecule
Lookup: Requested read-out MIC, target or system Mycobacterium tuberculosis H37 Rv, entry CCCCCCCCCCN1C(=O)/C(=C(/C)O)C(=O)[C@@H]1CC(C)C [Compound 13b]
Found: 12.5

---

- Tested on: clinical isolates of MSSA (methicillin sensitive S. aureus)
- Format: cell-based
- run-conditions: isolate MSSA-12
attribute-measured: Antibiotic MIC (µg/mL)
Numbers only, in µg/mL.

{"columns": ["compound", "Antibiotic MIC, µg/mL"],
 "data": [
  ["CCCCCCCCCCN1C(=O)/C(=C(/C)O)C(=O)[C@@H]1CC(C)C [Compound 13b]", 0.4],
  ["C/C(O)=C1\\C(=O)[C@H](CC(C)C)N(Cc2ccc(-c3ccccc3)cc2)C1=O [Compound 13k]", 0.8]
]}

Please state, for each entry, its recorded Antibiotic MIC.
1. CCCCN1C(=O)/C(=C(/C)O)C(=O)[C@@H]1CC(C)C [Compound 13j]
2. CCCCCCCCCCN1C(=O)/C(=C(/C)O)C(=O)[C@@H]1Cc1ccccc1 [Compound 13n]

Found:
6.25
0.8

---

- protocol-text: Cytotoxicity assay (MTT)
- Type: cell-based, monkey
- run-conditions: monkey, Vero monkey kidney cells (ATCC CCL-81); Vero cells, 72 hours, MTT; read-out: IC50 (Cytotoxicity): Concentration which reduces viability of Vero kidney cells by 50%
attribute-measured: IC50 at 72 h
Please give the number followed by its unit.

{"columns": ["compound", "test-result"],
 "data": [
  ["CCCCCCCCCCN1C(=O)/C(=C(/C)O)C(=O)[C@@H]1CC(C)C [Compound 13b]", "14.7 µg/mL"],
  ["CCCCCCCCCCN1C(=O)/C(=C(/C)O)C(=O)[C@@H]1C(C)C [Compound 13i]", "7 µg/mL"],
  ["C/C(O)=C1\\C(=O)[C@@H](Cc2ccccc2)N(Cc2ccccc2)C1=O [Compound 13g]", "80.6 µg/mL"]
]}

// below: IC50 at 72 h requested for another compound
Lookup: Value lookup for IC50 at 72 h; key = C/C(O)=C1\C(=O)[C@H](Cc2ccccc2)N(Cc2ccccc2)C1=O [Compound 13c]
Found: 75.7 µg/mL

---

- Tested on: S. epidermidis (RP62A) biofilm
- protocol-text: Calgary Biofilm Device anti-biofilm activity
- Type: cell-based
- run-conditions: Staphylococcus epidermidis, S. epidermidis biofilm; triplicate runs listed singly; read-out: MBEC = Minimum Biofilm Eradication Concentration
attribute-measured: MBC (µg/mL)
Numbers only, in µg/mL.

{"columns": ["compound", "MBC, µg/mL"],
 "data": [
  ["C/C(O)=C1\\C(=O)[C@H](CC(C)C)N(Cc2ccc(-c3ccccc3)cc2)C1=O [Compound 13k]", 200]
]}

Please state, for each entry, its recorded MBC.
1. CCCCCCCCCCN1C(=O)/C(=C(/C)O)C(=O)[C@@H]1C(C)C [Compound 13i]
2. CC(C)=CCCC(C)CCN1C(=O)/C(=C(/C)O)C(=O)[C@@H]1CC(C)C (stereo partly drawn) [Compound 13m]
3. CCCCCCCCCCN1C(=O)/C(=C(/C)O)C(=O)[C@@H]1CC(C)C [Compound 13b]

Found:
1: 25; 2: 200; 3: 50
